Assayed Target: Human M4 (Homo sapiens)
Construct: expressed in transfected cells; host or cells: CHO-K1 (Chinese hamster ovary, ATCC), stably expressing M4 and Gqi5
Sequence (P08173 whole entry): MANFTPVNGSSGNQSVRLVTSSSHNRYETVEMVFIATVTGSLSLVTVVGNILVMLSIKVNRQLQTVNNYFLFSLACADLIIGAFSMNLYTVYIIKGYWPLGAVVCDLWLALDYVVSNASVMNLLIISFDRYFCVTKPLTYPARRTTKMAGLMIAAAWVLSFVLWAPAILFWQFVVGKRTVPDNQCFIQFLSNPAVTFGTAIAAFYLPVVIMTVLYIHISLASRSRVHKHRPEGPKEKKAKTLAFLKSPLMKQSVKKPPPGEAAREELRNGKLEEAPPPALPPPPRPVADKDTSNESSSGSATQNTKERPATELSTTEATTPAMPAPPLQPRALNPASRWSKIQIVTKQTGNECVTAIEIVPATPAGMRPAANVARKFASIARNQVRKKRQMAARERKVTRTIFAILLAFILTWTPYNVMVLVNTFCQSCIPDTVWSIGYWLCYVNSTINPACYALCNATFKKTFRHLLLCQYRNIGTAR
Test: mAChR M4 cell-based functional assay (calcium flux, EC80 acetylcholine response)
Conditions: M4/Gqi5/CHO-K1 cells; decrease of the response to an EC80 concentration of acetylcholine; read-out: Human M4 IC50
Method: Human or rat M4 cDNA, along with the chimeric G protein Gqi5, were transfected into Chinese hamster ovary (CHO-K1) cells purchased from the American Type Culture Collection using Lipofectamine2000. […] Calcium flux was measured using the Functional Drug Screening System (FDSS) 6000 or 7000 (Hamamatsu Corporation, Tokyo, Japan) as an increase in the fluorescent static ratio. […] Agonist activity was analyzed as a concentration-dependent increase in calcium mobilization upon compound addition. […]
IC50 overview
Metric Name: IC50 (nM)

[[record]]
compound = "[2H]C([2H])(N1C[C@H]2C[C@H](Nc3ccc(-c4ccc5nn(C)cc5c4C)nn3)C[C@H]2C1)C(F)(F)C1CCOCC1 [compound 23]"
metric_name = "IC50"
val = 1.8

[[record]]
compound = "Cc1cc2nn(C)cc2cc1-c1ccc(N[C@H]2C[C@@H]3CN(CC4CCOCC4)C[C@@H]3C2)nn1 [compound 1]"
metric_name = "IC50"
val = 2.7

[[record]]
compound = "[2H]C([2H])(C1CCOC(C)(C)C1)N1C[C@H]2C[C@H](Nc3ccc(-c4ccc5nn(C)cc5c4C)nn3)C[C@H]2C1 (stereo partly drawn) [compound 18]"
metric_name = "IC50"
val = 0.99

[[record]]
compound = "[2H]C([2H])(C1CCOCC1)N1C[C@H]2C[C@H](Nc3ccc(-c4ccc5nn(C(F)F)cc5c4C)nn3)C[C@H]2C1 [compound 10]"
metric_name = "IC50"
val = 0.36

[[record]]
compound = "Cn1cc2c(C(F)(F)F)c(-c3ccc(N[C@H]4C[C@@H]5CN(CC6CCOCC6)C[C@@H]5C4)nn3)ccc2n1 [compound 7]"
metric_name = "IC50"
val = 1.5

[[record]]
compound = "[2H]C([2H])(C1CCOCC1)N1C[C@H]2C[C@H](Nc3ccc(-c4ccc5nn(C)cc5c4C)nn3)C[C@H]2C1 [compound 6]"
metric_name = "IC50"
val = 0.59


###

Assayed Target: Human M4 (Homo sapiens)
Construct: expressed in transfected cells; host or cells: CHO-K1 (Chinese hamster ovary, ATCC), stably expressing M4 and Gqi5
Test: mAChR M4 cell-based functional assay (calcium flux, EC80 acetylcholine response)
Metric Name: IC50

[[record]]
record_smiles = "Cc1c(-c2nnc(N[C@H]3C[C@@H]4CN(CC5CCOCC5)C[C@@H]4C3)c3ccsc23)ccc2nn(C)cc12"
assayed_target = "Human M4 (Homo sapiens)"
val = "500 pM"

